For each record, write down the corresponding AUC of viability dose-response curve.
- Test system: NOMO1
- experimental_details: AUC of viability dose-response curve (% viability x log10 dose units); higher = less sensitive
- condition_details: RPMI 5 mM glucose + 10% dialyzed FBS; 48 h
One number for each entry.

CCOC(=O)c1ccc(C#Cc2ccc3c(c2)C(C)(C)CCS3)nc1; 450
COC1=C(OC)C(=O)C(C/C=C(\C)CC/C=C(\C)CC/C=C(\C)CC/C=C(\C)CC/C=C(\C)CC/C=C(\C)CC/C=C(\C)CC/C=C(\C)CC/C=C(\C)CCC=C(C)C)=C(C)C1=O; 466
c1ccc(-c2nn3c(c2-c2ccnc4cc(OCCN5CCOCC5)ccc24)CCC3)nc1; 471

Exam item: Provide one value: measured AUC of viability dose-response curve of CCOC(=O)c1ncn2c1CN(C)C(=O)c1cc(F)ccc1-2
Marked response: 465

---

- Tested on: NOMO1
- experimental_details: cell viability relative to DMSO control; higher = less cytotoxic
- condition_details: RPMI 5 mM glucose + 10% dialyzed FBS; 48 h; 0.19 µM
measured_attribute: cell viability

Worked cases, cell viability given:
COc1cc2ncnc(Nc3ccc(F)c(Cl)c3)c2cc1OCCCN1CCOCC1; 113%
N#Cc1c(C2CCNCC2)cc(-c2c(O)cccc2OCC2CC2)nc1N; 105%
O=C1c2cccc(O)c2C(=O)c2c(O)cc(CO)cc21; 93.1%

Items follow; give cell viability for each.
1. O=C(Oc1ccc([N+](=O)[O-])cc1)N1CCN(Cc2cccc(Oc3ccccc3)c2)CC1
2. CC(C)[C@H](CO)Nc1nc(Nc2ccc(C(=O)O)c(Cl)c2)c2ncn(C(C)C)c2n1
3. N/C(=N\C(=O)c1nc(Cl)c(N)nc1N)NCc1ccccc1

Marked response:
98.3%
140%
100%

---

For each record, write down the corresponding cell viability.
- Tested on: NOMO1
- experimental_details: cell viability relative to DMSO control; higher = less cytotoxic
- condition_details: RPMI 5 mM glucose + 10% dialyzed FBS; 48 h; 0.19 µM
Write the figure, then the unit, nothing else.

COc1ccc2cccc(CCNC(C)=O)c2c1; 97.4%

Items follow; give cell viability for each.
1. CCOC(=O)c1ncn2c1CN(C)C(=O)c1cc(F)ccc1-2
2. COc1cc(N2CCC(N3CCN(C)CC3)CC2)ccc1Nc1ncnc(Nc2ccccc2[S+](=O)([O-])C(C)C)n1

Marked response:
1. 107%
2. 107%

---

- Test system: SEM cells
- experimental_details: cell viability relative to DMSO control; higher = less cytotoxic
- condition_details: RPMI 5 mM glucose + 10% dialyzed FBS; 48 h; 5.12 µM
measured_attribute: cell viability (%)
Numbers only, in %.

OC1=C(C=CC=C1)C2=CC=C(C=C2)C3=CSC4=C3C(=C(/C#N)C(=O)N4)/O; 104

Items follow; give cell viability for each.
1. c1cc(OCCN2CCCCC2)cc(-c2n[nH]c3ccc(-c4nc[nH]n4)cc23)c1
2. O=P(O)(O)C(O)(Cc1cccnc1)P(=O)(O)[O][Na] (centres undefined)
3. COc1ccc(CCC(=O)Nc2nc3ccc(Cl)cc3s2)cc1OC
4. Cc1ccccc1C(C(=O)NC1CCCCC1)N(C(=O)CNc1ccc(C#N)cc1)c1cccc(F)c1 (centres undefined)
5. CC1(C)O[C@H]2CC(=O)OC[C@]23[C@H]2CC[C@@]4(C)[C@H](c5ccoc5)OC(=O)[C@H]5O[C@]54[C@]2(C)C(=O)C[C@@H]13
6. C[C@@]12OC(=O)[C@@]1(NC(=O)[C@@H]2CCCl)[C@@H](O)[C@H]\3CCC\C=C3
7. c1cc(-c2sc(-c3ccncc3)c(-c3ccncc3)c2-c2ccncc2)ccn1

Marked response:
1: 89.4; 2: 118; 3: 102; 4: 97.6; 5: 84.8; 6: 5.11; 7: 41

Exam item: Provide one value: measured cell viability of COc1ccc(-c2nc3cc(C4=NNC(=O)CC4C)ccc3[nH]2)cc1 (centres undefined)
Marked response: 110
